# targetUnderTest: Human thrombin (Homo sapiens)
# Construct: purchased Haematologic Technologies Inc
# testDescription: Inhibition of the protease activity of thrombin (chromogenic substrate S-2238)
# Assay type: biochemical
# assayContext: Table C; 3 nM thrombin, 125 μM S-2238, 10 min pre-incubation, RT
attributeMeasured: IC50

Below: 3 compounds and their reported IC50.
> print(dat)
                                     smiles       val
1  O=C(CCc1ccccc1)n1nc(-c2ccco2)nc1NCc1ccccc1  < 0.1 µM
2  O=S(=O)(c1ccc(Cl)cc1)n1nc(-c2cccnc2)nc1NCc1cccs1    > 1 µM
3  O=C(Cc1ccccc1)n1nc(-c2ccccc2)nc1NCc1ccccc1  < 0.1 µM

For each listed entry, give its IC50.
1. COC(=O)c1n[nH]c(NC(=O)c2cccc(C)c2)n1
2. O=C(c1cccnc1)n1nc(-c2ccco2)nc1NCc1cccs1

1: > 1 µM; 2: < 0.1 µM

* * *

# targetUnderTest: Human thrombin (Homo sapiens, UniProt P00734)
# Construct: purchased Haematologic Technologies Inc
# testDescription: Inhibition of the protease activity of thrombin (chromogenic substrate S-2238)
# Type: biochemical
# assayContext: inhibition of the protease activity of thrombin; class symbols a/b/c
attributeMeasured: IC50

Below: 5 compounds and their reported IC50.
> print(dat)
                                   compound        val
1  COc1ccc(C(=O)n2nc(-c3ccccn3)nc2NCc2ccccc2)c(N)c1 [Cmpd 104]   < 100 nM
2  Fc1ccc(CNc2nc(-c3ccccn3)n(Cc3ccccc3)n2)cc1 [Cmpd 162]  > 1000 nM
3  CC(C)(C)C(=O)n1nc(-c2ccncc2)nc1NCc1ccc(F)cc1 [Cmpd 75]   < 100 nM
4  CC(C)NC(=O)n1nc(-c2cccnc2)nc1NCc1ccc(F)cc1 [Cmpd 190]  > 1000 nM
5  CC(C)(C)C(=O)n1nc(-c2cccnc2)nc1NCc1ccc(F)cc1 [Cmpd 71]   < 100 nM

For each listed entry, give its IC50.
1. O=C(c1ccccc1)n1nc(-c2ccncc2)nc1NCc1ccc(F)cc1 [Cmpd 14]
2. CON(C)C(=O)c1cc(-c2ccccn2)nn1CCc1ccc(F)cc1 [Cmpd 53]
3. CON(C)C(=O)c1cn(-c2ccccn2)nc1NCc1ccc(F)cc1 [Cmpd 48]
4. O=C(Nc1nc(C(=O)N2CCCC2)n[nH]1)c1ccccc1Cl [Cmpd 171]
5. COc1ccc(CNc2nc(-c3cccnc3)nn2C(=O)c2ccoc2)cc1 [Cmpd 126]
6. COc1ccccc1C(=O)n1nc(-c2ccccn2)nc1NCc1cccc2ccccc12 [Cmpd 119]

["< 100 nM", "> 1000 nM", "> 1000 nM", "> 1000 nM", "100 to 1000 nM", "> 1000 nM"]

* * *

# targetUnderTest: Human thrombin (Homo sapiens, UniProt P00734)
# Construct: purchased Haematologic Technologies Inc
# testDescription: Inhibition of the protease activity of thrombin (chromogenic substrate S-2238)
# Assay type: biochemical
# assayContext: Table C; 3 nM thrombin, 125 μM S-2238, 10 min pre-incubation, RT
pIC50: −log10 of the molar value.
Would you mind telling me the reported pIC50 of each entry?

Below: 3 molecules and their reported pIC50.
> print(dat)
                                     smiles     val
1  O=C(c1ccccc1Cl)n1nc(-c2ccco2)nc1NCc1ccc(F)cc1  > 7.00
2         COC(=O)c1n[nH]c(NC(=O)c2ccoc2C)n1  < 6.00
3            COC(=O)c1n[nH]c(NC2=NCCCCC2)n1  < 6.00

For each listed entry, give its pIC50.
1. O=C(c1cccnc1)n1nc(-c2cccnc2)nc1NCc1ccco1
2. CCC(=O)n1nc(-c2cccnc2)nc1NCc1ccc(OC)cc1
3. COc1ccc(CNc2nc(-c3ccco3)nn2C(=O)c2ccc(C)cc2)cc1
4. CCC(=O)n1nc(-c2ccco2)nc1SC

1. < 6.00
2. 6.00 to 7.00
3. 6.00 to 7.00
4. < 6.00

* * *

# targetUnderTest: Human thrombin (Homo sapiens)
# Construct: purchased Haematologic Technologies Inc
# testDescription: Inhibition of the protease activity of thrombin (chromogenic substrate S-2238)
# Format: biochemical
# assayContext: inhibition of the protease activity of thrombin
Would you mind telling me the reported IC50 of each entry?

Below: 6 compounds and their reported IC50.
> print(dat)
                                     smiles        val
1  CCc1ccccc1C(=O)n1nc(-c2ccccn2)cc1NCc1ccccc1  > 1000 nM
2  COc1ccc(CNc2nc(-c3cccnc3)nn2C(=O)c2ccsc2)cc1  > 1000 nM
3        CCCn1nc(NCc2ccc(F)cc2)nc1-c1ccccn1  > 1000 nM
4  COc1ccc(C(=O)n2nc(-c3ccccn3)nc2NCc2ccccc2)c(OC)c1   < 100 nM
5          c1ccc(CNc2nc(-c3ccco3)n[nH]2)cc1  > 1000 nM
6  COc1ccccc1C(=O)n1nc(-c2ccncc2)nc1NCc1ccc(F)cc1   < 100 nM

Please examine the following record next.
Determine reported IC50 for Fc1ccc(CNc2nc(-c3ccccn3)nn2CCc2ccccc2)cc1 ; test system: Human thrombin (Homo sapiens).
> 1000 nM

* * *

# targetUnderTest: Human thrombin (Homo sapiens, UniProt P00734)
# Construct: purchased Haematologic Technologies Inc
# testDescription: Inhibition of the protease activity of thrombin (chromogenic substrate S-2238)
# Format: biochemical
# assayContext: inhibition of the protease activity of thrombin; class symbols a/b/c
Would you mind telling me the reported IC50 of each entry?

Below: 5 molecules and their reported IC50.
> print(dat)
                                   molecule                           targetundertest             val
1  COc1ccc(C(=O)n2nc(-c3ccccn3)cc2NCc2ccccc2)c(N)c1 [Cmpd 105]  Human thrombin (Homo sapiens, UniProt P00734)  100 to 1000 nM
2  CN(C(=O)c1cc(-c2ccccn2)n(CCc2ccc(F)cc2)n1)c1ccccc1 [Cmpd 131]  Human thrombin (Homo sapiens, UniProt P00734)       > 1000 nM
3  CCC(=O)n1nc(-c2ccco2)nc1NCc1ccc(F)cc1 [Cmpd 63]  Human thrombin (Homo sapiens, UniProt P00734)        < 100 nM
4  COC(=O)c1n[nH]c(NC(=O)c2ccccc2F)n1 [Cmpd 193]  Human thrombin (Homo sapiens, UniProt P00734)       > 1000 nM
5  CC(C)(C)C(=O)n1nc(-c2ccco2)nc1NCc1ccccc1 [Cmpd 136]  Human thrombin (Homo sapiens, UniProt P00734)        < 100 nM

For each listed entry, give its IC50.
1. COC(=O)c1n[nH]c(NC(=O)c2cccc(Cl)c2)n1 [Cmpd 195]
2. CCC(=O)n1nc(-c2cccnc2)nc1SCc1ccc(F)cc1 [Cmpd 86]
3. O=C(N1CCOCC1)n1nc(-c2cccnc2)nc1NCc1ccc(F)cc1 [Cmpd 17]

["> 1000 nM", "< 100 nM", "> 1000 nM"]

For each listed entry, give its IC50.
1. CCCC(=O)n1nc(-c2ccccn2)nc1NCc1ccc(F)cc1 [Cmpd 69]
2. CCC(=O)n1nc(-c2cccnc2)nc1NCc1cccc(C#N)c1 [Cmpd 179]

["< 100 nM", "> 1000 nM"]

* * *

# targetUnderTest: Human thrombin (Homo sapiens)
# Construct: purchased Haematologic Technologies Inc
# testDescription: Inhibition of the protease activity of thrombin (chromogenic substrate S-2238)
# Format: biochemical
# assayContext: Table C; 3 nM thrombin, 125 μM S-2238, 10 min pre-incubation, RT
attributeMeasured: IC50

Below: 4 compounds and their reported IC50.
> print(dat)
                                     smiles        val
1  O=C(c1ccco1)n1nc(-c2cccnc2)nc1NCc1ccc(F)cc1   < 100 nM
2  O=C(CCc1ccccc1)n1nc(-c2ccccc2)nc1NCc1ccccc1  > 1000 nM
3   CCCC(=O)n1nc(-c2cccnc2)nc1NCc1ccc(F)cc1   < 100 nM
4  CC(C)C(=O)n1nc(-c2ccco2)nc1NCc1ccc(F)cc1   < 100 nM

Dear colleague, please send me the reported IC50 for O=C(c1ccc(Cl)cc1)n1nc(-c2cccnc2)nc1NCc1ccc(F)cc1 when you can.
< 100 nM

* * *

Would you mind telling me the reported pIC50 of each entry?
# targetUnderTest: Human thrombin (Homo sapiens)
# Construct: purchased Haematologic Technologies Inc
# testDescription: Inhibition of the protease activity of thrombin (chromogenic substrate S-2238)
# Format: biochemical
# assayContext: inhibition of the protease activity of thrombin
pIC50: −log10 of the molar value.

> print(dat)
                                     smiles     val
1  COc1ccccc1C(=O)N(Cc1ccccc1)c1cc(-c2ccccc2F)n[nH]1  < 6.00

For each listed entry, give its pIC50.
1. COc1ccc(CNc2nc(-c3ccccn3)nn2C(=O)c2cccs2)cc1
2. Cc1ccccc1C(=O)n1nc(-c2ccccc2)nc1NCc1ccc(F)cc1
3. O=C(c1ccco1)n1nc(-c2ccncc2)nc1NCc1ccccc1
4. O=C(c1ccccc1Br)n1nc(-c2ccccn2)cc1NCc1ccccc1

1. < 6.00
2. 6.00 to 7.00
3. > 7.00
4. 6.00 to 7.00
